- Organism: Rattus norvegicus
- method-description: DrugMatrix - Regimen: Daily Repeat
- Assay type: toxicity, organism-based, Sprague-Dawley
- Set-up: regimen Daily Repeat, gender Male, age 6-8 weeks
- assay-conditions: in vivo, po, 0 mg/kg, […], tissue Blood, route oral GAVAGE, dose level Control, time 28 day, vehicle .5 % CMC
property-measured: ABSOLUTE SEGMENTED NEUTROPHIL (cells/µL)
# output: bare number, implied unit cells/µL

Give its ABSOLUTE SEGMENTED NEUTROPHIL value. Item: `Cc1ccc2cc3c(ccc4ccccc43)c3c2c1CC3` 2250

* * *

- Organism: Rattus norvegicus
- method-description: DrugMatrix - Regimen: Daily Repeat
- Format: toxicity, organism-based, Sprague-Dawley
- Design: regimen Daily Repeat, gender Male, age 6-8 weeks
- assay-conditions: in vivo, iv, 0 mg/kg, 120 h, tissue Plasma, dose level Control, time 5 day, vehicle 100 % SALINE
Starred links: 1 amine or outer side, 2 acyl side, 3 side chain; linkers in the order of their positions; H or OH if unused. Positions of bridges follow the written chain, without caps; N, C: chain ends. Non-standard residues stand in square brackets, D forms with d. Residues, ends and D or L forms follow the SMILES beside them. Chains are numbered I, II in the order given. Actinocin(9to1) = Cc1c2oc3c(C)ccc(C(=O)[*:1])c3nc-2c(C(=O)[*:2])c(N)c1=O; NMeV = CN[C@H](C(=O)O)C(C)C; Sar = CNCC(=O)O
For each entry below, report its URIC ACID value.
# output: bare number, implied unit mg/dL

Give its URIC ACID value. Item: `CC[C@]1(O)C[C@H]2CN(CCc3c([nH]c4ccccc34)[C@@](C(=O)OC)(c3cc4c(cc3OC)N(C=O)[C@H]3[C@@](O)(C(=O)OC)[C@H](OC(C)=O)[C@]5(CC)C=CCN6CC[C@]43[C@@H]65)C2)C1` 0.62

Give its URIC ACID value. Item: Cc1c2oc3c(C)ccc(C(=O)N[C@@H]4C(=O)N[C@H](C(C)C)C(=O)N5CCC[C@H]5C(=O)N(C)CC(=O)N(C)[C@@H](C(C)C)C(=O)O[C@@H]4C)c3nc-2c(C(=O)N[C@@H]2C(=O)N[C@H](C(C)C)C(=O)N3CCC[C@H]3C(=O)N(C)CC(=O)N(C)[C@@H](C(C)C)C(=O)O[C@@H]2C)c(N)c1=O [DACTINOMYCIN] (I: T[dV]P[Sar][NMeV] / II: T[dV]P[Sar][NMeV]; ester I:1-I:C, II:1-II:C; linker I:N-II:N via Actinocin(9to1)) 1.43

Give its URIC ACID value. Item: `COc1cc2c3cc1Oc1cc(ccc1O)C[C@@H]1c4c(cc(OC)c(O)c4Oc4ccc(cc4)C[C@@H]3N(C)CC2)CC[N+]1(C)C.[Cl-]` 1.48

Give its URIC ACID value. Item: `Cc1ccc(N(CC2=NCCN2)c2cccc(O)c2)cc1` 1.98

* * *

- Species on record: Rattus norvegicus
- method-description: DrugMatrix - Regimen: Daily Repeat
- Assay type: toxicity, organism-based, Sprague-Dawley
- Set-up: regimen Daily Repeat, gender Male, age 6-8 weeks
- assay-conditions: in vivo, po, 0 mg/kg, 72 h, tissue Blood, route oral GAVAGE, dose level Control, time 3 day, vehicle 100 % WATER
property-measured: LEUKOCYTE COUNT (x10E3/uL)
# output: bare number, implied unit x10E3/uL

Give its LEUKOCYTE COUNT value. Item: `Cc1onc(-c2ccccc2Cl)c1C(=O)N[C@@H]1C(=O)N2[C@@H]1SC(C)(C)[C@@H]2C(=O)O` 14.9

Give its LEUKOCYTE COUNT value. Item: `N[C@@H](Cc1ccc(O)c(O)c1)C(=O)O` 13.43

Give its LEUKOCYTE COUNT value. Item: CC(O)CO (stereo not given) 14.9

Give its LEUKOCYTE COUNT value. Item: `NCCCCCC(=O)O` 14.9

Give its LEUKOCYTE COUNT value. Item: `Nc1c2c(nc3ccccc13)CCCC2` 13.7

* * *

- Species: Rattus norvegicus
- method-description: DrugMatrix - Regimen: Daily Repeat
- Format: toxicity, organism-based, Sprague-Dawley
- Design: regimen Daily Repeat, gender Male, age 6-8 weeks
- assay-conditions: in vivo, po, 0 mg/kg, 120 h, tissue Plasma, route oral GAVAGE, dose level Control, time 5 day, […]
For each entry below, report its TOTAL PROTEIN value.
# output: bare number, implied unit G/DL

Give its TOTAL PROTEIN value. Item: `CN(C)c1nc(N(C)C)nc(N(C)C)n1` 5.53

Give its TOTAL PROTEIN value. Item: `OC(Cn1cncn1)(Cn1cncn1)c1ccc(F)cc1F` 5.55

Give its TOTAL PROTEIN value. Item: `CC(C)(Oc1ccc(Cl)cc1)C(=O)O` 5.92

Give its TOTAL PROTEIN value. Item: CCC(C)n1ncn(-c2ccc(N3CCN(c4ccc(OCC5COC(Cn6cncn6)(c6ccc(Cl)cc6Cl)O5)cc4)CC3)cc2)c1=O (centres undefined) 5.55

Give its TOTAL PROTEIN value. Item: `O=NN(CCCl)C(=O)NC1CCCCC1` 5.53

Give its TOTAL PROTEIN value. Item: CC(C)C(=O)Nc1ccc([N+](=O)[O-])c(C(F)(F)F)c1 [FLUTAMIDE] 5.72

Give its TOTAL PROTEIN value. Item: Cc1oncc1C(=O)Nc1ccc(C(F)(F)F)cc1 [LEFLUNOMIDE] 5.7

Give its TOTAL PROTEIN value. Item: `C[C@@H]1CN(c2c(F)c(N)c3c(=O)c(C(=O)O)cn(C4CC4)c3c2F)C[C@H](C)N1` 5.53

Give its TOTAL PROTEIN value. Item: `Cc1ccc(-c2cc(C(F)(F)F)nn2-c2ccc(S(N)(=O)=O)cc2)cc1` 5.55

* * *

- Species on record: Rattus norvegicus
- method-description: DrugMatrix - Regimen: Daily Repeat
- Format: toxicity, organism-based, Sprague-Dawley
- Design: regimen Daily Repeat, gender Male, age 6-8 weeks
- assay-conditions: in vivo, po, 0 mg/kg, 72 h, tissue Blood, route oral GAVAGE, dose level Control, time 3 day, […]
property-measured: EOSINOPHIL

Give its EOSINOPHIL value. Item: CC(C)C(=O)Nc1ccc([N+](=O)[O-])c(C(F)(F)F)c1 [FLUTAMIDE] 0.17%

Give its EOSINOPHIL value. Item: `C[C@H]1O[C@@H](O[C@H]2[C@@H](O)C[C@H](O[C@H]3[C@@H](O)C[C@H](O[C@H]4CC[C@@]5(C)[C@H](CC[C@@H]6[C@@H]5C[C@@H](O)[C@]5(C)[C@@H](C7=CC(=O)OC7)CC[C@]65O)C4)O[C@@H]3C)O[C@@H]2C)C[C@H](O)[C@@H]1O` 0%

Give its EOSINOPHIL value. Item: `CC(C)(Oc1ccc(Cl)cc1)C(=O)O` 0%

Give its EOSINOPHIL value. Item: `Cc1ccc(-c2cc(C(F)(F)F)nn2-c2ccc(S(N)(=O)=O)cc2)cc1` 0.67%

Give its EOSINOPHIL value. Item: `OC(Cn1cncn1)(Cn1cncn1)c1ccc(F)cc1F` 0.67%

Give its EOSINOPHIL value. Item: `C[C@@H]1CN(c2c(F)c(N)c3c(=O)c(C(=O)O)cn(C4CC4)c3c2F)C[C@H](C)N1` 0.5%

Give its EOSINOPHIL value. Item: `Cc1noc(NS(=O)(=O)c2ccc(N)cc2)c1C` 0%

* * *

- Species on record: Rattus norvegicus
- method-description: DrugMatrix - Regimen: Daily Repeat
- Assay type: toxicity, organism-based, Sprague-Dawley
- Parameters: regimen Daily Repeat, gender Male, age 6-8 weeks
- assay-conditions: in vivo, po, 0 mg/kg, 72 h, tissue Blood, route oral GAVAGE, dose level Control, time 3 day, vehicle 100 % WATER
property-measured: MEAN CORPUSCULAR HEMOGLOBIN (pg)
# output: bare number, implied unit pg

Give its MEAN CORPUSCULAR HEMOGLOBIN value. Item: `Cn1cc[nH]c1=S` 24.3

Give its MEAN CORPUSCULAR HEMOGLOBIN value. Item: `Cc1onc(-c2ccccc2Cl)c1C(=O)N[C@@H]1C(=O)N2[C@@H]1SC(C)(C)[C@@H]2C(=O)O` 24.62

Give its MEAN CORPUSCULAR HEMOGLOBIN value. Item: `C[C@H](CS)C(=O)N1CCC[C@H]1C(=O)O` 25.23

Give its MEAN CORPUSCULAR HEMOGLOBIN value. Item: `N[C@@H](Cc1ccc(O)c(O)c1)C(=O)O` 24.88

Give its MEAN CORPUSCULAR HEMOGLOBIN value. Item: `C[C@](N)(Cc1ccc(O)c(O)c1)C(=O)O` 24.35

* * *

- Species on record: Rattus norvegicus
- method-description: DrugMatrix - Regimen: Daily Repeat
- Format: toxicity, organism-based, Sprague-Dawley
- Set-up: regimen Daily Repeat, gender Male, age 6-8 weeks
- assay-conditions: in vivo, po, 0 mg/kg, 72 h, tissue Plasma, route oral GAVAGE, dose level Control, time 3 day, vehicle .5 % CMC
For each entry below, report its LACTATE DEHYDROGENASE value.
# output: bare number, implied unit u/L

Give its LACTATE DEHYDROGENASE value. Item: `CC(C)(C)NC(=O)[C@@H]1C[C@@H]2CCCC[C@@H]2CN1C[C@@H](O)[C@H](Cc1ccccc1)NC(=O)[C@H](CC(N)=O)NC(=O)c1ccc2ccccc2n1` 241.67

Give its LACTATE DEHYDROGENASE value. Item: `Cc1ccc(/N=C/N(C)/C=N/c2ccc(C)cc2C)c(C)c1` 154.33

Give its LACTATE DEHYDROGENASE value. Item: `ClC(Cl)Br` 682.5

Give its LACTATE DEHYDROGENASE value. Item: `CCn1cc(C(=O)O)c(=O)c2cc(F)c(N3CCNCC3)cc21` 154.33

Give its LACTATE DEHYDROGENASE value. Item: `Nc1ccn([C@H]2CC[C@@H](CO)O2)c(=O)n1` 210

Give its LACTATE DEHYDROGENASE value. Item: `ClC(Br)Br` 682.5

Give its LACTATE DEHYDROGENASE value. Item: `CN1CCN(CCCN2c3ccccc3Sc3ccc(Cl)cc32)CC1` 155.5

Give its LACTATE DEHYDROGENASE value. Item: CCCN1C[C@H](CSC)C[C@@H]2c3cccc4[nH]cc(c34)C[C@H]21 [PERGOLIDE] 294.83

Give its LACTATE DEHYDROGENASE value. Item: `COc1nc(C)nc(Cl)c1N=C1NCCN1` 597.5

Give its LACTATE DEHYDROGENASE value. Item: `CCOP(=S)(OCC)Oc1nc(Cl)c(Cl)cc1Cl` 107.33
